These data points were gathered from PubChem BioAssay AID1117285.

target: Leucyl-cystinyl aminopeptidase (Mus musculus); assay: IRAP inhibitors, dose response, selectivity assay for ERAP1 modulator project, biochemical, dry powder samples, set 2 (AID 1117285); conditions: purified IRAP, Leu-AMC hydrolysis fluorescence, 1 h; at 50 µM; lower = more inhibition
Records with an inconclusive call do not appear. Activity calls are given as the source filed them.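 The calls were made as follows: active = called active in every replicate test, with a falling signal and AC50 within twice the top valid dose; inconclusive = replicate tests disagree in their calls; inactive = inactive in every replicate test, including a rising signal.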
MEASURED_PARAMETER: max activity % (lower = more inhibition)

>>> result("COc1ccc(C(=O)Nc2cccc(C(F)(F)F)c2)cc1S(=O)(=O)O")
"inactive"
>>> result("O=C(Nc1cc(C(F)(F)F)ccc1N1CCCCC1)c1ccc(S(=O)(=O)O)cc1")
"inactive"
>>> result("CC(=O)N1CCN(C(=O)C2(NC(=O)NCCc3ccccc3)CCCCC2)CC1")
"inactive"
>>> result("COc1ccc(C(=O)Nc2ccccc2N2CCCCC2)cc1S(=O)(=O)O")
"inactive"
>>> result("CC(=O)N1CCN(C(=O)C2(NC(=O)Nc3ccccc3)CCCCC2)CC1")
"inactive"
